Cited source: PubChem BioAssay

Reported composite z-score values follow for various molecules
tested target: Follistatin (Homo sapiens) (UniProt P19883)
Sequence (P19883 whole entry, looked up): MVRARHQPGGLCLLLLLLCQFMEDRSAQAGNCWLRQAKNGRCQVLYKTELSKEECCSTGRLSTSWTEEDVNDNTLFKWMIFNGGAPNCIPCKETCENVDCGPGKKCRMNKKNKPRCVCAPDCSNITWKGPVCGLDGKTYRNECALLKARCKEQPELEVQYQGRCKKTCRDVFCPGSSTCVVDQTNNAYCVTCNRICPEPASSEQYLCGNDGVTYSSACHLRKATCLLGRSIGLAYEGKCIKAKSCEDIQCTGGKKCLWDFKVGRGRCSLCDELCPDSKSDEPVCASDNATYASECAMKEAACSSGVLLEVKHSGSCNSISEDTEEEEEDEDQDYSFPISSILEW
protocol details: FST protein binding to printed compounds – biochemical, small-molecule microarray, 635/667 nm fluorescence, primary screen (AID 1132)
study conditions: 635 nm fluorescence, higher = more signal
measure name: composite z-score

[
  {
    "molecule": "C=C(COC)/C(=C/C[C@H](OC(=O)c1ccncc1)c1ccccc1OCCO)c1cc(C(=O)OC)ccc1OC",
    "val": 1.17
  },
  {
    "molecule": "CC(C)[Si](C#C[Si](C(C)C)(C(C)C)C(C)C)(O[C@H](c1ccccc1)c1cn(Cc2ccccc2)nn1)C(C)C",
    "val": 0.532
  },
  {
    "molecule": "C#Cc1cc2ccccc2oc1=O",
    "val": -2.22
  },
  {
    "molecule": "O=C1NC(=O)C2C1C=CC(C(O)c1ccco1)N2Nc1ccc(Cl)cc1Cl (stereo not drawn)",
    "val": 1.13
  },
  {
    "molecule": "Cc1ccc(S[C@]2(C(=O)NC(C)C)CC(=O)N(Cc3cc(C(F)(F)F)cc(C(F)(F)F)c3)[C@@H]2c2ccc(CO)cc2)cc1",
    "val": -1.33
  },
  {
    "molecule": "CCOC(=O)C[C@H]1[C@H](OC(=O)c2ccc(-c3ccccc3)cc2)[C@@H](NC(=O)CC(C)C)c2cc(OCCCO)ccc2N1C(=O)c1ccc2ccccc2n1",
    "val": 0.285
  },
  {
    "molecule": "[N-]=[N+]=Nc1ccccc1C[C@]1(C(=O)N2CCOCC2)COC(c2ccc(OCCCO)cc2)=N1",
    "val": 0.39
  },
  {
    "molecule": "COc1cc2c(cc1O)C=[N+](Cc1sc3ccccc3c1Cl)CC2",
    "val": 0.609
  }
]

* * *

tested target: Albumin (Bos taurus) (UniProt P02769)
Sequence (P02769 whole entry, looked up): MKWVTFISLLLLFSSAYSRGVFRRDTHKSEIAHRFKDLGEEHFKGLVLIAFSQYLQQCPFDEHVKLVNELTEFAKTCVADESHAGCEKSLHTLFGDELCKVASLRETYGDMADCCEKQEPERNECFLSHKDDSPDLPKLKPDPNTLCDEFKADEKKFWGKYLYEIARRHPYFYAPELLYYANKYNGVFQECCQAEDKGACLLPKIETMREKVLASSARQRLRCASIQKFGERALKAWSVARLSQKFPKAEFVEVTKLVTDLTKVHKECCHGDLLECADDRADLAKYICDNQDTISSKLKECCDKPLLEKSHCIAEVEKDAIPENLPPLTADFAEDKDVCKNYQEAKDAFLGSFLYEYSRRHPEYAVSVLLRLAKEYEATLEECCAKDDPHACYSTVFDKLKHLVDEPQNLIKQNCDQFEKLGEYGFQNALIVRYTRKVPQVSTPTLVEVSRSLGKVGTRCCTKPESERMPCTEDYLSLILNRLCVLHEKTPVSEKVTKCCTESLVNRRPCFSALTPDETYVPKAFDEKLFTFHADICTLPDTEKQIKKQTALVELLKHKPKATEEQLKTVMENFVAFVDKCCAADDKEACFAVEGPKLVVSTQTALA
protocol details: compounds binding labelled BSA control protein – biochemical, small-molecule microarray, Alexa647 label, 635/667 nm fluorescence, artefact control for SMM control protein annotation, profiling panel (AID 1118);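 further: score merges 667 nm emission intensity and signal-to-noise per printed compound spot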
study conditions: BSA-A647 binding, fluorescence 635 nm, higher = more signal
We use 0.05 as the dividing line for composite z-score: on or above the line is Condition met, below is Condition not met.

[
  {
    "molecule": "CCCN1C(=O)[C@]2(Cc3ccccc31)N=C(c1ccc(OCCCO)cc1)O[C@@H]2c1ccccc1",
    "cat": "Condition not met"
  },
  {
    "molecule": "C=CCC(OC(C)=O)[C@@H]1[C@@H](N(Cc2ccc(-c3ccccc3)cc2)C(=O)c2ccc(-c3ccccc3)cc2)c2cc(OCCCO)ccc2N1C(=O)c1ccc2ccccc2c1 (stereo not given in full)",
    "cat": "Condition not met"
  },
  {
    "molecule": "COc1ccc([Si](C)(C)[C@@H]2[C@@H](CC(=O)N3CCC[C@H]3CO)O[C@]3(C(=O)N(Cc4cccc(N5C(=O)COc6ccccc65)c4)c4ccccc43)[C@H]2C)cc1",
    "cat": "Condition met"
  },
  {
    "molecule": "CO[C@H]1O[C@H](CO)[C@@H](OC(=O)CCc2ccccc2)[C@@H]2OC(=O)[C@@H](Cc3ccccc3)C/C=C/C[C@H](Cc3ccccc3)C(=O)O[C@@H]12",
    "cat": "Condition met"
  },
  {
    "molecule": "O=C(NCCN1CCOCC1)[C@@H]1c2ccccc2C(=O)N(Cc2ccccc2Cl)[C@H]1c1ccc(CO)cc1",
    "cat": "Condition not met"
  },
  {
    "molecule": "COC(=O)[C@@]1(Cc2ccc(OC)cc2)[C@H]2c3cc(C(=O)N(C)C)n(Cc4ccc(C)o4)c3C[C@H]2CN1C(=O)c1ccccc1",
    "cat": "Condition met"
  },
  {
    "molecule": "COc1cc(NN2C(C(O)c3ccco3)C=CC3C(=O)N(C)C(=O)C32)cc(OC)c1OC (stereo not given)",
    "cat": "Condition met"
  },
  {
    "molecule": "C[N+](C)(C)CCCCCCNC(=O)[C@@H]1C[C@@H]2C(=O)N3CCC[C@H]3C(=O)N2[C@@H]1c1ccc(O)cc1",
    "cat": "Condition not met"
  },
  {
    "molecule": "CCOC(=O)C[C@H]1[C@H](OC(=O)c2ccc(C(=O)c3ccccc3)cc2)[C@@H](NC(=O)CC(C)C)c2cc(OCCCO)ccc2N1C(=O)c1ccccc1",
    "cat": "Condition met"
  },
  {
    "molecule": "Cc1ccc(S[C@]2(C(=O)O)CC(=O)N(C3CCCCC3)[C@@H]2c2ccc(CO)cc2I)cc1",
    "cat": "Condition met"
  },
  {
    "molecule": "O=C1O[C@@H](c2ccccc2)[C@@H](c2ccccc2)N2[C@@H](c3ccc(O)cc3)[C@]3(C(=O)Nc4ccc(C#CCCO)cc43)[C@@H](C(=O)N3CCN(c4ncccn4)CC3)[C@H]12",
    "cat": "Condition not met"
  },
  {
    "molecule": "CCOC(=O)C[C@H]1[C@H](OC(=O)c2ccccc2-c2ccccc2)[C@@H](NC(=O)c2ccc3ccccc3c2)c2cc(OCCCO)ccc2N1C(=O)c1ccccc1",
    "cat": "Condition met"
  },
  {
    "molecule": "C=CCOC(=O)[C@@]1(Cc2ccccc2)C[C@H]2CO[C@H](c3ccc(OC)cc3)N2C1=O",
    "cat": "Condition met"
  },
  {
    "molecule": "CCCCNC(=O)c1ccc(C#CC(C)(C)C)c(OC(C)=O)c1",
    "cat": "Condition met"
  },
  {
    "molecule": "CC(C)[Si](C#C[Si](C(C)C)(C(C)C)C(C)C)(O[C@H](c1ccccc1)c1cn(Cc2ccccc2)nn1)C(C)C",
    "cat": "Condition not met"
  }
]
